experiment: Pharmacokinetic study of DPTM in rats after i.v., i.m. and p.o. administration (HPLC-MS/MS, non-compartmental); format: in vivo; settings: Sprague-Dawley, rat, plasma, iv, 75 mg/kg, i.v., 75 mg/kg, read-out: t1/2 (converted)
measurement kind: half-life

Task item: What does the record list as half-life for C=CC1(C)CC(OC(=O)CSc2nc(N)cc(N)n2)C2(C)C(C)CCC3(CCC(=O)C32)C(C)C1O (stereo not shown) ?
Reply: 1.9 h

----------
experiment: Pharmacokinetic study of DPTM in rats after i.v., i.m. and p.o. administration (HPLC-MS/MS, non-compartmental); assay type: in vivo; conditions: Sprague-Dawley, rat, plasma, im, 25 mg/kg, i.m., 25 mg/kg, read-out: t1/2 (converted)
measurement kind: half-life
The answer consists of two parts: a number and, after it, its unit.

Task item: half-life lookup needed for C=CC1(C)CC(OC(=O)CSc2nc(N)cc(N)n2)C2(C)C(C)CCC3(CCC(=O)C32)C(C)C1O (stereo not shown) [DPTM] , thanks.
Reply: 3.2 h

Origin of values: paper PMC6413085
